procedure.details: Water resistance test of thin films
Format: physicochemical
cond: thin film immersed in water at 75° C. for 30 minutes
quantity: Δλmax (d) (change in absorption maximum wavelength) (nm)

given.smiles: Cc1c(/C=N/[N-]c2nnnn2-c2ccccc2)c([O-])n(CC(C)C)c(=O)c1C#N.Cc1c(/C=N/[N-]c2nnnn2-c2ccccc2)c([O-])n(CC(C)C)c(=O)c1C#N.Cc1c(/C=N/[N-]c2nnnn2-c2ccccc2)c([O-])n(CC(C)C)c(=O)c1C#N.Cc1c(/C=N/[N-]c2nnnn2-c2ccccc2)c([O-])n(CC(C)C)c(=O)c1C#N.[Co+3].[Co+3].c1ccc(-[n+]2ccc(-c3cc[n+](-c4ccccc4)cc3)cc2)cc1
observed.result: 0.5
//
given.smiles: CCCCn1c([O-])c(/C=N/[N-]c2nnnn2-c2ccccc2)c(C)c(C#N)c1=O.CCCCn1c([O-])c(/C=N/[N-]c2nnnn2-c2ccccc2)c(C)c(C#N)c1=O.CCCCn1c([O-])c(/C=N/[N-]c2nnnn2-c2ccccc2)c(C)c(C#N)c1=O.CCCCn1c([O-])c(/C=N/[N-]c2nnnn2-c2ccccc2)c(C)c(C#N)c1=O.Fc1cccc(-[n+]2ccc(-c3cc[n+](-c4cccc(F)c4)cc3)cc2)c1.[Co+3].[Co+3]
observed.result: 0.5
//
given.smiles: Cc1c(/C=N/[N-]c2nnnn2-c2ccccc2)c([O-])n(CC(C)C)c(=O)c1C#N.Cc1c(/C=N/[N-]c2nnnn2-c2ccccc2)c([O-])n(CC(C)C)c(=O)c1C#N.Cc1c(/C=N/[N-]c2nnnn2-c2ccccc2)c([O-])n(CC(C)C)c(=O)c1C#N.Cc1c(/C=N/[N-]c2nnnn2-c2ccccc2)c([O-])n(CC(C)C)c(=O)c1C#N.FC(F)(F)c1cccc(-[n+]2ccc(-c3cc[n+](-c4cccc(C(F)(F)F)c4)cc3)cc2)c1.[Co+3].[Co+3]
observed.result: 0
//
given.smiles: Cc1c(/C=N/[N-]c2nnnn2-c2ccccc2)c([O-])n(CC(C)C)c(=O)c1C#N.Cc1c(/C=N/[N-]c2nnnn2-c2ccccc2)c([O-])n(CC(C)C)c(=O)c1C#N.Cc1c(/C=N/[N-]c2nnnn2-c2ccccc2)c([O-])n(CC(C)C)c(=O)c1C#N.Cc1c(/C=N/[N-]c2nnnn2-c2ccccc2)c([O-])n(CC(C)C)c(=O)c1C#N.Fc1ccc(-[n+]2ccc(-c3cc[n+](-c4ccc(F)cc4)cc3)cc2)cc1.[Co+3].[Co+3]
observed.result: 0.5
